- Experiment Notes: qHTS to identify inhibitors of the type 1 interferon - major histocompatibility complex class I in skeletal muscle: Secondary screen by immunofluorescence; further: nearly all actives have a fitted effect of over 70% in size
- Experimental Setup: C25cl48 myoblasts, IFN-b induced HLA-ABC immunofluorescence, 24 h; series mostly up to 49.8 µM
Records with an inconclusive call do not appear. Calls of active or inactive are those of the source. The call rests on the fitted dose curve; in most records, active means well fitted inhibition curve with a large enough effect; inconclusive means small, poorly fitted or top-dose-only effect; inactive means no such curve, though single readings can be large or run the other way.
Possible outcomes: TRUE for active, FALSE for inactive

C=C1C(=O)O[C@@H]2[C@H]3O[C@]3(C)CCC=C(C)CC[C@@H]12 = TRUE
CCc1c(-c2ccccc2C)nc2c(C#N)c[nH]n2c1=O = FALSE
c1cc(Nc2cc(C3CC3)[nH]n2)nc(Nc2ccc3nc[nH]c3c2)n1 = TRUE
Cc1ncc(-c2ccnc(Nc3ccc(S(C)(=O)=O)cc3)n2)n1C(C)C = TRUE
Cc1ccc([N+](=O)[O-])cc1S(=O)(=O)N(C)/N=C/c1cnc2ccc(Br)cn12 = TRUE
CC(C)C[C@H](NC(=O)[C@H](CCc1ccccc1)NC(=O)CN1CCOCC1)C(=O)N[C@@H](Cc1ccccc1)C(=O)N[C@@H](CC(C)C)C(=O)[C@@]1(C)CO1 = TRUE
COC1CC(C(=O)c2ccc3c(N)ncc(-c4ccc(-c5cnn(C)c5)cc4)c3n2)C1 (stereo not given) = FALSE
CC(C)c1cc(CNc2nc(Nc3cc(C4CC4)[nH]n3)cc(N3CCN(C)CC3)n2)on1 = TRUE
CCc1c2c(nc3ccc(O)cc13)-c1cc3c(c(=O)n1C2)COC(=O)[C@]3(O)CC = TRUE
CNC(=O)c1ccc(Nc2ncc(C(F)(F)F)c(NCc3nccnc3N(C)S(C)(=O)=O)n2)cc1 = TRUE
